5-hydroxytryptamine receptor 2C (Homo sapiens, UniProt P28335) data, read-out AC50; also: assay procedure not described here
Sequence (P28335 whole entry): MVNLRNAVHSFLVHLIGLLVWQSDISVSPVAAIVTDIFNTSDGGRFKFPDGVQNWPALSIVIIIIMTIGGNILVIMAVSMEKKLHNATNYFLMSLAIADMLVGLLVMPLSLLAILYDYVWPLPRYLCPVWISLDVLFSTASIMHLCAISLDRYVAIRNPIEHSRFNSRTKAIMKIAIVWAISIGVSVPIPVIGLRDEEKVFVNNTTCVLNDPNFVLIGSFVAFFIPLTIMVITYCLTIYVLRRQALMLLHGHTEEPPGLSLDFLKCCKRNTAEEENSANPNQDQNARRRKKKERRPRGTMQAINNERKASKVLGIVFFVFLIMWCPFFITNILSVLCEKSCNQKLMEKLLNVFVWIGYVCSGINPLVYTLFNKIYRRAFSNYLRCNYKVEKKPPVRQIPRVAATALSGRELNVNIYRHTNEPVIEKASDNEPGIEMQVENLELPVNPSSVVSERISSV

Which AC50 is reported with 5-hydroxytryptamine receptor 2C (Homo sapiens, UniProt P28335) for this entry: CC(C)C(=O)c1c(C(C)C)nn2ccccc12 [IBUDILAST] ? > 30 µM

// fetch 5-hydroxytryptamine receptor 2C (Homo sapiens, UniProt P28335) AC50 for NCC[C@H](O)C(=O)N[C@@H]1C[C@H](N)[C@@H](O[C@H]2O[C@H](CN)[C@@H](O)[C@H](O)[C@H]2O)[C@H](O)[C@H]1O[C@H]1O[C@H](CO)[C@@H](O)[C@H](N)[C@H]1O [AMIKACIN] > 30 µM

Query AC50 on 5-hydroxytryptamine receptor 2C (Homo sapiens, UniProt P28335) for C[C@@H](O)[C@H]1C(=O)N2C(C(=O)O)=C(S[C@@H]3CN[C@H](C(=O)N(C)C)C3)[C@H](C)[C@H]12 [MEROPENEM] > 300 µM

Quick check: AC50 on 5-hydroxytryptamine receptor 2C (Homo sapiens, UniProt P28335), item COc1cc2nc(N(C)CCCNC(=O)C3CCCO3)nc(N)c2cc1OC (stereo not drawn) [ALFUZOSIN] ? > 30 µM

Recall the recorded AC50 for C=CCN1CCCC1CNC(=O)c1cc(S(N)(=O)=O)cc(OC)c1OC (stereo not drawn) [VERALIPRIDE] with 5-hydroxytryptamine receptor 2C (Homo sapiens, UniProt P28335) and state it. > 30 µM

Quick check: AC50 on 5-hydroxytryptamine receptor 2C (Homo sapiens, UniProt P28335), item CCCCCNC(=N)N/N=C/c1c[nH]c2ccc(OC)cc12 [TEGASEROD] ? 0.543 µM

Query the reported AC50 for 5-hydroxytryptamine receptor 2C (Homo sapiens, UniProt P28335); item: CN(C)CC/C=C1\c2ccccc2CSc2ccccc21 [DOTHIEPIN] 1.6 µM

Enter reported AC50 observed with 5-hydroxytryptamine receptor 2C (Homo sapiens, UniProt P28335) for C[C@H]1COc2c(C3(N)CC3)c(F)cc3c(=O)c(C(=O)O)cn1c23 [PAZUFLOXACIN] > 30 µM

---

STUDY_TARGET: UniProtKB P03372
Sequence (P03372 whole entry): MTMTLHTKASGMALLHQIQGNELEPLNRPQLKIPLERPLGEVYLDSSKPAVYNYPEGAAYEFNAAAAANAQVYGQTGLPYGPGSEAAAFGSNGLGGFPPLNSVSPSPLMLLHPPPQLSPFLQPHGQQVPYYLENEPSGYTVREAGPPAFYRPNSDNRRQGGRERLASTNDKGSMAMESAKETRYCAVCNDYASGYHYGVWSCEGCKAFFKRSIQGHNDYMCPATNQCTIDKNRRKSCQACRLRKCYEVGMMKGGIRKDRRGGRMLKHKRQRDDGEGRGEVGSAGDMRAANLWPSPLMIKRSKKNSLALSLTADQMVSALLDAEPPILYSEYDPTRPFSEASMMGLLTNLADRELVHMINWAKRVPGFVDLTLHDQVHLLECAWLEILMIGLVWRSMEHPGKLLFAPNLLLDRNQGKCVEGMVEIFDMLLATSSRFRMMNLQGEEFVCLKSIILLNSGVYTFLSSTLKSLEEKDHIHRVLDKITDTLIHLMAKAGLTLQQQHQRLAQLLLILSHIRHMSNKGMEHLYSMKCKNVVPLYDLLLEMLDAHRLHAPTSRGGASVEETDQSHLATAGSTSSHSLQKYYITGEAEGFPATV
READOUT_LABEL: AC50

Entry `Nc1ccn([C@H]2CC[C@@H](CO)O2)c(=O)n1` : reported AC50 = ? > 10 µM

Which measured AC50 value corresponds to NC(=O)OCC(COC(N)=O)c1ccccc1 [FELBAMATE] ? > 10 µM

Field request: AC50 | item: COc1ccc(C(=O)Nc2ccccc2CCC2CCCCN2C)cc1 (configuration not stated) [ENCAINIDE] > 30 µM

Reported AC50 for O=[N+]([O-])O[C@@H]1CO[C@H]2[C@@H]1OC[C@@H]2O [ISOSORBIDE MONONITRATE] : what is it? > 30 µM

I am curious: what AC50 value has been reported for `Cc1ccc(-c2cc(C(F)(F)F)nn2-c2ccc(S(N)(=O)=O)cc2)cc1` ? > 30 µM

What does the record list as AC50 for `CC(C)Cn1cnc2c(N)nc3ccccc3c21` ? > 10 µM

Fill in: AC50 of `CC[C@@H](C(N)=O)N1CCCC1=O` is ___ > 30 µM

Look up AC50: `CN1CCC(=C2c3ccccc3CCc3sccc32)CC1` > 30 µM

Using the record for COC(=O)C1=C(C)NC(C)=C(C(=O)OC2CCCN(Cc3ccccc3)C2)C1c1cccc([N+](=O)[O-])c1 (configuration not stated) , report its AC50. > 30 µM

State the recorded AC50 for this entry: `CO[C@@H]1[C@@H](O[C@@H]2O[C@H](C)[C@@H](O[C@H]3C[C@@](C)(O)[C@@H](OC(=O)CC(C)C)[C@H](C)O3)[C@H](N(C)C)[C@H]2O)[C@@H](CC=O)C[C@@H](C)[C@@H](O)/C=C/C=C/C[C@@H](C)OC(=O)C[C@H]1OC(C)=O` > 10 µM

Fill blank: measured AC50 of the molecule C=CCN1CCCC1CNC(=O)c1cc(S(N)(=O)=O)cc(OC)c1OC (configuration not stated) [VERALIPRIDE] is ____. > 30 µM

Requested field: AC50. Item: `CN1C(C(=O)Nc2ccccn2)=C(O)c2sc(Cl)cc2S1(=O)=O` > 30 µM

Reported AC50 for COc1cccc(C2(O)CCCCC2CN(C)C)c1 (configuration not stated) : what is it? > 30 µM

Record request: AC50 value, item `O=C1C(O)=C([C@H]2CC[C@H](c3ccc(Cl)cc3)CC2)C(=O)c2ccccc21` > 30 µM

Looking for the measured AC50 of `CO[C@H]1C[C@@H]2CC[C@@H](C)[C@@](O)(O2)C(=O)C(=O)N2CCCC[C@H]2C(=O)O[C@H]([C@H](C)C[C@@H]2CC[C@@H](O)[C@H](OC)C2)CC(=O)[C@H](C)/C=C(\C)[C@@H](O)[C@@H](OC)C(=O)[C@H](C)C[C@H](C)/C=C/C=C/C=C/1C` , can you help? > 30 µM

Please report the recorded AC50 for CC(C(=O)O)c1ccc(N2Cc3ccccc3C2=O)cc1 (configuration not stated) . > 30 µM

Name the recorded AC50 for `CN1C(=O)OC(C)(C)C1=O` . > 10 µM

---

Endpoint: AC50. System: Equilibrative nucleoside transporter 1 (Homo sapiens). Items follow. Also: assay procedure not described here.
Sequence (Q99808 whole entry): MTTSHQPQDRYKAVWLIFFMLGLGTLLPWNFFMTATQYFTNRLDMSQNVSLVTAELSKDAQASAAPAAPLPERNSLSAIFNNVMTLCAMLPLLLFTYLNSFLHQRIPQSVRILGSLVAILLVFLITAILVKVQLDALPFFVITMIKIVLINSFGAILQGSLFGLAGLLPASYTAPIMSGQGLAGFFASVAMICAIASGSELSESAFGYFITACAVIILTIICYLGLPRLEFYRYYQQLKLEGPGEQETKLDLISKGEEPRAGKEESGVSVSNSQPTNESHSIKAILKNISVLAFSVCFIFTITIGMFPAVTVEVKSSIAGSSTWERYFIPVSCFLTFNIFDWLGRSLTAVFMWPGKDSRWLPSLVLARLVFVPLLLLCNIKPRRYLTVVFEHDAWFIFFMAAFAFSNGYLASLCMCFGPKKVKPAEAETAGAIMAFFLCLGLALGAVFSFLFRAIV

GET /values?readout=AC50&system=Equilibrative nucleoside transporter 1 (Homo sapiens)&item= `C[C@H]1COc2c(C3(N)CC3)c(F)cc3c(=O)c(C(=O)O)cn1c23` > 10 µM

Recorded AC50 for Cc1c(OCC(F)(F)F)ccnc1C[S+]([O-])c1nc2ccccc2[nH]1 (stereo not given) with Equilibrative nucleoside transporter 1 (Homo sapiens), please? > 30 µM

Request body: readout AC50, system Equilibrative nucleoside transporter 1 (Homo sapiens), query `CN(C)CCc1c[nH]c2ccc(C[C@H]3COC(=O)N3)cc12` . Return the value. > 30 µM

Given the entry COc1ccccc1OCCNCC(O)c1ccc(C)c(S(N)(=O)=O)c1 (stereo not given) , what AC50 was observed with Equilibrative nucleoside transporter 1 (Homo sapiens)? > 30 µM

What value of AC50 on Equilibrative nucleoside transporter 1 (Homo sapiens) does COc1ccc(C(=O)Nc2ccccc2CCC2CCCCN2C)cc1 (stereo not given) [ENCAINIDE] have? > 30 µM

---

Let's go through some recorded AC50 values for 5-hydroxytryptamine receptor 2A (Homo sapiens, UniProt P28223) together.

I am curious: what AC50 value has been reported for Cn1nnc2c(C(N)=O)ncn2c1=O [TEMOZOLOMIDE] ? > 10 µM

GET /values?readout=AC50&item= O=[N+]([O-])O[C@@H]1CO[C@H]2[C@@H]1OC[C@@H]2O [ISOSORBIDE MONONITRATE] > 10 µM

Quick one: AC50 for CCCc1nc(C(C)(C)O)c(C(=O)OCc2oc(=O)oc2C)n1Cc1ccc(-c2ccccc2-c2nnn[nH]2)cc1 [OLMESARTAN MEDOXOMIL] ? > 10 µM

I have this compound here, CC[C@@H]1C(=O)OC[C@@H]1Cc1cncn1C [PILOCARPINE] , and I need its recorded AC50. 4.72 µM

Can you share its AC50? I mean this compound: CC(C(=O)O)c1ccc(N2Cc3ccccc3C2=O)cc1 (centres undefined) [INDOPROFEN] > 10 µM

Entry C[C@H](N)[C@H](O)c1cccc(O)c1 [METARAMINOL] has what AC50? > 10 µM

So what does the record say about AC50 for C=CCN1C[C@H](C(=O)N(CCCN(C)C)C(=O)NCC)C[C@@H]2c3cccc4[nH]cc(c34)C[C@H]21 [CABERGOLINE] ? 0.0077 µM

Look at this compound and give its reported AC50. CC(=O)O[C@H]1CC[C@@]2(C)C(=CC[C@@H]3[C@@H]2CC[C@]2(C)C(c4cccnc4)=CC[C@@H]32)C1 [ABIRATERONE ACETATE] > 10 µM

# get_value(readout='AC50', item= C=CCC1(C(C)CC)C(=O)NC(=O)NC1=O (centres undefined) [TALBUTAL] ) > 10 µM

---

Hi there, I'd appreciate the recorded AC50 for every entry that follows.
STUDY_TARGET: Gamma-aminobutyric acid receptor subunit alpha-1 (Rattus norvegicus, UniProt P62813); also: assay procedure not described here
Sequence (P62813 whole entry): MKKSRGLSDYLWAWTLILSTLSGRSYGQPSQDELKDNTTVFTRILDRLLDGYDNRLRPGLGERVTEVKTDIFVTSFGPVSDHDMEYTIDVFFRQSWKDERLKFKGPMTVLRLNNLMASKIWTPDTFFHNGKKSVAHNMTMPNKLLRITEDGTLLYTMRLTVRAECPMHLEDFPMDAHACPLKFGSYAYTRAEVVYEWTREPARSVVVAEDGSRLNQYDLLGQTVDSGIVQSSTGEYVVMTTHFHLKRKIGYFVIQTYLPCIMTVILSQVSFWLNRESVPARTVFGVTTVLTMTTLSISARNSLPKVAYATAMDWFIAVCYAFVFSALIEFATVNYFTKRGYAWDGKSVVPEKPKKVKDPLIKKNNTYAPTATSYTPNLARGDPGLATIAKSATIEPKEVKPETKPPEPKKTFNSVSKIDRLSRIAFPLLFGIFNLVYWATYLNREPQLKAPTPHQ
Assay type: functional

Give the measured AC50 of C#C[C@]1(O)CC[C@H]2[C@@H]3[C@H](C)CC4=C(CCC(=O)C4)[C@H]3CC[C@@]21C [TIBOLONE] . 30 µM

// returns reported AC50 for input CC1(C)O[C@@H]2C[C@H]3[C@@H]4CCC5=CC(=O)C=C[C@]5(C)[C@H]4[C@@H](O)C[C@]3(C)[C@]2(C(=O)CO)O1 [DESONIDE] > 10 µM

I have this compound here, `COc1ccc(-c2ccc3cc(C(=O)O)ccc3c2)cc1C12CC3CC(CC(C3)C1)C2` , and I need its recorded AC50. > 30 µM

What measured AC50 goes with CN1CCC(=C2c3ccccc3CCc3sccc32)CC1 [PIZOTYLINE] ? > 10 µM

Given the entry `CNS(=O)(=O)Cc1ccc2[nH]cc(CCN(C)C)c2c1` , report its measured AC50. > 30 µM

Tell me the measured AC50 of CCOc1ccc(Cc2cc([C@@H]3O[C@H](CO)[C@@H](O)[C@H](O)[C@H]3O)ccc2Cl)cc1 [DAPAGLIFLOZIN] , please. > 10 µM

Record request: AC50 value, item `CN(C)CCC=C1c2ccccc2C(C)(C)c2ccccc21` > 30 µM

Look up AC50: `CCOC(=O)[C@H](CCc1ccccc1)N[C@@H](C)C(=O)N1[C@H](C(=O)O)C[C@@H]2CCC[C@@H]21` > 10 µM

Looking for the measured AC50 of Cc1c(C(=O)NN2CCCCC2)nn(-c2ccc(Cl)cc2Cl)c1-c1ccc(Cl)cc1 [RIMONABANT] , can you help? > 30 µM

What AC50 value was documented for this compound, CC[C@H]1CN2CCc3cc(OC)c(OC)cc3[C@@H]2C[C@@H]1C[C@H]1NCCc2cc(OC)c(OC)cc21 [EMETINE] ? > 30 µM

Which AC50 value is on record for O=C(O)C[C@H](O)C[C@H](O)/C=C/c1c(C2CC2)nc2ccccc2c1-c1ccc(F)cc1 [PITAVASTATIN] ? > 10 µM

Bench note: what AC50 did CCCSc1ccc2nc(NC(=O)OC)[nH]c2c1 [ALBENDAZOLE] show? > 10 µM

What value of AC50 has been recorded for this entry: CN1C(=O)C(O)N=C(c2ccccc2Cl)c2cc(Cl)ccc21 (stereo not drawn) [LORMETAZEPAM] 0.0014 µM

Dear colleague, I am looking for the recorded AC50 of the following compound: CC(C(=O)O)c1ccc(N2Cc3ccccc3C2=O)cc1 (stereo not drawn) [INDOPROFEN] > 30 µM

If you can, please state the reported AC50 value of Cc1cn([C@H]2C[C@H](N=[N+]=[N-])[C@@H](CO)O2)c(=O)[nH]c1=O [ZIDOVUDINE] . > 10 µM

Field request: AC50 | item: CC(C)(C)c1cc(C(C)(C)C)c(NC(=O)c2c[nH]c3ccccc3c2=O)cc1O [IVACAFTOR] > 10 µM

Form field: reported AC50 of COc1ccccc1OCCNCC(O)c1ccc(C)c(S(N)(=O)=O)c1 (stereo not drawn) [AMOSULALOL] > 30 µM

Reported AC50, compound COc1ccc2c3c1O[C@H]1[C@@H](O)CC[C@H]4[C@@H](C2)N(C)CC[C@@]341 [DIHYDROCODEINE] : ____ > 30 µM
